Values from paper PMC10865860

IC50, cathepsin L (Homo sapiens, UniProt P07711): measured values

- Compound: "CC(C)CC(NC(=O)OCC1CC1c1cccc(F)c1)C(=O)NC(C=O)CC1CCNC1=O (stereo not shown) [5c]"
  IC50 / nM: 30
- Compound: "COc1ccccc1C1CC1COC(=O)NC(CC(C)C)C(=O)NC(CC1CCNC1=O)C(O)S(=O)(=O)O (stereo not shown) [11d]"
  IC50 / nM: 20
- Compound: "CC(C)CC(NC(=O)OCC1CC1c1cccc(F)c1)C(=O)NC(CC1CCNC1=O)C(O)S(=O)(=O)O (stereo not shown) [5d]"
  IC50 / nM: 20
- Compound: "COc1ccccc1C1CC1COC(=O)NC(CC(C)C)C(=O)NC(C=O)CC1CCNC1=O (stereo not shown) [11c]"
  IC50 / nM: 30

----------
target: MERS-CoV 3CLpro (Middle East respiratory syndrome-related coronavirus, UniProt K9N7C7); assay: biochemical
Sequence (K9N7C7 3248-3553 limits assumed): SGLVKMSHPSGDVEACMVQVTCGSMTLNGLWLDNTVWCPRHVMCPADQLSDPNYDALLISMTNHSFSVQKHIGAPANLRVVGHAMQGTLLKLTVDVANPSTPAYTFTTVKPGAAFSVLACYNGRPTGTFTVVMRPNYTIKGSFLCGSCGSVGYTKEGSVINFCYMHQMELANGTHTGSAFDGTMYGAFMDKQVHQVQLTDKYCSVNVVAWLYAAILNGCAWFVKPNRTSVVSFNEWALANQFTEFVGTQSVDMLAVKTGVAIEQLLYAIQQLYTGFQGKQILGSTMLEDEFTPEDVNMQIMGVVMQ
Where a SMILES comes first, the peptide text is derived from it. The star is where a group is joined. Cbz = O=C(OCc1ccccc1)*

- Molecule: "N=C(N)c1ccc2cc(OC(=O)c3ccc(N=C(N)N)cc3)ccc2c1"
  IC50: "> 50 µM"
- Molecule: "CC(C)[C@H](NC(=O)OCc1ccccc1)C(=O)N[C@H](C=O)Cc1ccccc1 [MDL28170] (Cbz-Val-Phe-aldehyde)"
  IC50: "> 50 µM"

----------
biological target: SARS-CoV-2 3CLpro (Severe acute respiratory syndrome coronavirus 2); test: biochemical
pIC50: −log10 of the molar value. Where a SMILES comes first, the peptide text is derived from it. The star is where a group is joined. Cbz = O=C(OCc1ccccc1)*

- Compound: "CC(C)[C@H](NC(=O)OCc1ccccc1)C(=O)N[C@H](C=O)Cc1ccccc1 [MDL28170] (Cbz-Val-Phe-aldehyde)"
  pIC50: "< 4.30"
- Compound: "N=C(N)c1ccc2cc(OC(=O)c3ccc(N=C(N)N)cc3)ccc2c1 [Nafamostat]"
  pIC50: "< 4.30"

----------
This listing pairs compounds with measured pIC50.
biological target: cathepsin B (Homo sapiens); construct: purchased Abcam; experiment: biochemical
pIC50: −log10 of the molar value.

- Compound: "COc1ccccc1C1CC1COC(=O)NC(CC(C)C)C(=O)NC(CC1CCNC1=O)C(O)S(=O)(=O)O (stereo not shown) [11d]"
  Experimental Target: "cathepsin B (Homo sapiens)"
  pIC50: 6.57
- Compound: "CC(C)CC(NC(=O)OCC1CC1c1cccc(F)c1)C(=O)NC(C=O)CC1CCNC1=O (stereo not shown)"
  Experimental Target: "cathepsin B (Homo sapiens)"
  pIC50: 6.62
- Compound: "CC(C)CC(NC(=O)OCC1CC1c1cccc(F)c1)C(=O)NC(CC1CCNC1=O)C(O)S(=O)(=O)O (stereo not shown)"
  Experimental Target: "cathepsin B (Homo sapiens)"
  pIC50: 6.64
- Compound: "COc1ccccc1C1CC1COC(=O)NC(CC(C)C)C(=O)NC(C=O)CC1CCNC1=O (stereo not shown) [11c]"
  Experimental Target: "cathepsin B (Homo sapiens)"
  pIC50: 6.51
